Numbers sourced from ChEMBL document CHEMBL1122978.

# System: Estrogen receptor (Mus musculus)
# assay notes: Relative binding affinity calculated as the ratio of molar concentration of E2 and the triarylpropenones (TAP's) required to decrease [3H]E2 binding by 50%.
Classification field: enter T for RBA values not below 0.4, F for values below it.

{"columns": ["smiles text", "class name"],
 "data": [
  ["O=C(/C(=C\\c1ccccc1)c1ccccc1)c1ccc(OCCN2CCCC2)cc1", "F"],
  ["COc1ccc(C(=O)/C(=C\\c2ccccc2)c2ccccc2)cc1", "F"],
  ["CC(=O)Oc1ccc(/C=C(/C(=O)c2ccccc2)c2ccccc2)cc1", "T"],
  ["COc1ccc(/C=C(/C(=O)c2ccccc2)c2ccccc2)cc1", "F"],
  ["O=C(/C(=C\\c1ccccc1)c1ccccc1)c1ccc(O)cc1", "F"],
  ["O=C(/C(=C/c1ccccc1)c1ccc(O)cc1)c1ccc(O)cc1", "F"],
  ["O=C(/C(=C/c1ccccc1)c1ccccc1)c1ccccc1", "F"],
  ["COc1ccc(/C(=C/c2ccccc2)C(=O)c2ccccc2)cc1", "F"],
  ["CC(=O)Oc1ccc(/C(=C\\c2ccccc2)C(=O)c2ccccc2)cc1", "F"],
  ["O=C(/C(=C/c1ccc(O)cc1)c1ccc(O)cc1)c1ccc(O)cc1", "T"]
]}

----------
// reported Uterine weight per item
# tested target: Estrogen receptor (Mus musculus) (UniProt O08537+P19785)
# Sequence (O08537 whole entry, looked up): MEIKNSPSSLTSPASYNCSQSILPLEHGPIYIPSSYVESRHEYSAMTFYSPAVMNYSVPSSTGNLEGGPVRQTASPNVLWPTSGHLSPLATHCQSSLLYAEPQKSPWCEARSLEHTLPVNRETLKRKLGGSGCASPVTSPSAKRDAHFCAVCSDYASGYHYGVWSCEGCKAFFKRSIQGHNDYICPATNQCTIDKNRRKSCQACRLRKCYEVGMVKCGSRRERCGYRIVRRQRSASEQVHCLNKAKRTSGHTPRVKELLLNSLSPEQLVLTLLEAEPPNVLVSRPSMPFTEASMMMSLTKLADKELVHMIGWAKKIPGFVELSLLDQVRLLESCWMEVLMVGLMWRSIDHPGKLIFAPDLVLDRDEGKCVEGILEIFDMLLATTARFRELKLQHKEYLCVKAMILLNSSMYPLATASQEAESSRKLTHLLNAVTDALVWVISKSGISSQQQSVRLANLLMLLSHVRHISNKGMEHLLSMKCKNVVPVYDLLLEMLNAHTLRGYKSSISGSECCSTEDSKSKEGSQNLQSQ
# Sequence (P19785 whole entry, looked up): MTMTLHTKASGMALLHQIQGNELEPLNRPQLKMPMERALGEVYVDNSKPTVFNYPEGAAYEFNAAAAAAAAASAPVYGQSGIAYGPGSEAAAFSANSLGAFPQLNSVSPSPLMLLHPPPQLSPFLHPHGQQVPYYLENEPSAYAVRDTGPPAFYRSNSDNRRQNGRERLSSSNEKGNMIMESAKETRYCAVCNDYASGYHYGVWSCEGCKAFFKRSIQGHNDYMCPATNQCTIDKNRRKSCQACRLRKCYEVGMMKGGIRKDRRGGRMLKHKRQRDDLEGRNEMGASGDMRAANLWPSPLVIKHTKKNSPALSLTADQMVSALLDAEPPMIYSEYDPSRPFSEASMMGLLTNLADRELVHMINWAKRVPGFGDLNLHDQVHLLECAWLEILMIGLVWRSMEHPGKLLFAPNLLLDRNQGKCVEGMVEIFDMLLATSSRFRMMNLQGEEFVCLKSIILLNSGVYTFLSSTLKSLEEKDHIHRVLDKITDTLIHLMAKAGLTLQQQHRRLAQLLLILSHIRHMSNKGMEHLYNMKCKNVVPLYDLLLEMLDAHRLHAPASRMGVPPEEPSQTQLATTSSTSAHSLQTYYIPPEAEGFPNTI

{"columns": ["smiles text", "Uterine weight"],
 "data": [
  ["CC(=O)Oc1ccc(/C=C(/C(=O)c2ccc(OC(C)=O)cc2)c2ccccc2)cc1", "14 mg"],
  ["COc1ccc(/C(=C/c2ccccc2)C(=O)c2ccccc2)cc1", "3.5 mg"],
  ["O=C(/C(=C\\c1ccccc1)c1ccccc1)c1ccc(O)cc1", "3.2 mg"],
  ["O=C(/C(=C/c1ccccc1)c1ccc(O)cc1)c1ccccc1", "2.9 mg"],
  ["O=C(/C(=C/c1ccc(O)cc1)c1ccccc1)c1ccccc1", "5 mg"],
  ["O=C(/C(=C\\c1ccc(O)cc1)c1ccccc1)c1ccc(O)cc1", "3.4 mg"]
]}

----------
# tested target: Estrogen receptor (Mus musculus) (UniProt O08537+P19785)

{"columns": ["smiles text", "Uterine weight (mg)"],
 "data": [
  ["O=C(/C(=C/c1ccc(O)cc1)c1ccc(O)cc1)c1ccccc1", 5.5],
  ["CC(=O)Oc1ccc(/C=C(/C(=O)c2ccccc2)c2ccccc2)cc1", 5.9],
  ["O=C(/C(=C/c1ccccc1)c1ccc(O)cc1)c1ccc(O)cc1", 6.8],
  ["COc1ccc(/C=C(/C(=O)c2ccccc2)c2ccccc2)cc1", 4.3],
  ["COc1ccc(/C=C(\\C(=O)c2ccccc2)c2ccccc2)cc1", 4.6],
  ["O=C(/C(=C\\c1ccc(O)cc1)c1ccc(O)cc1)c1ccccc1", 5.6],
  ["CC(=O)Oc1ccc(/C(=C\\c2ccccc2)C(=O)c2ccccc2)cc1", 4.2],
  ["COc1ccc(/C(=C\\c2ccccc2)C(=O)c2ccccc2)cc1", 4.7],
  ["O=C(/C(=C/c1ccccc1)c1ccccc1)c1ccccc1", 4.4],
  ["COc1ccc(C(=O)/C(=C\\c2ccccc2)c2ccccc2)cc1", 4.8],
  ["COc1ccc(C(=O)/C(=C/c2ccccc2)c2ccccc2)cc1", 5],
  ["O=C(/C(=C\\c1ccccc1)c1ccccc1)c1ccccc1", 3],
  ["CC(=O)Oc1ccc(/C(=C/c2ccccc2)C(=O)c2ccccc2)cc1", 4.5],
  ["O=C(/C(=C\\c1ccccc1)c1ccc(O)cc1)c1ccc(O)cc1", 4.1]
]}
